- target-under-test: CB2 receptor (hCB2R), CHO cell line stably overexpressing CB2 receptor (Homo sapiens, UniProt P34972)
- Construct: expressed in transfected cells; host or cells: CHO cell line stably overexpressing CB2 receptor (G418 selection)
- Sequence (P34972 whole entry): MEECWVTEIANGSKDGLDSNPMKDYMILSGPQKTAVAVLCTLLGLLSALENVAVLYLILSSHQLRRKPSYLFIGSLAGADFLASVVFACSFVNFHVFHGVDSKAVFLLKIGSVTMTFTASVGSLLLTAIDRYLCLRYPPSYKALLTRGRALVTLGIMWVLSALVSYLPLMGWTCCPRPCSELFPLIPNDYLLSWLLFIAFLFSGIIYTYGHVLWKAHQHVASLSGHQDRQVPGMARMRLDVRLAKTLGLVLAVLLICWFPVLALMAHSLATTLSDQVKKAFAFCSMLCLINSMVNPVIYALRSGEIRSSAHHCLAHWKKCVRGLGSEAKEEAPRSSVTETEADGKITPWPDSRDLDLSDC
- procedure-summary: cAMP hCB2R functional assay (HTRF)
- Format: cell-based
- test-parameters: CHO cells overexpressing CB2 receptor, forskolin, means ± SEM of 2-3 independent experiments
// values below are reported EC50
measurement-kind: EC50

molecule: COc1cc(C(C)(C)[C@@H](CCCCCN=[N+]=[N-])c2ccccc2)cc(OC)c1[C@H]1C=C(CN)[C@H]2C[C@@H]1C2(C)C
measurement-kind: EC50
val: 2690 nM
//
molecule: CCCCC[C@@H](c1ccccc1)C(C)(C)c1cc(OC)c([C@H]2C=C(CO)[C@H]3C[C@@H]2C3(C)C)c(OC)c1
measurement-kind: EC50
val: 302 nM
//
molecule: CCCCC[C@H](C(F)(F)F)C(C)(C)c1cc(OC)c([C@H]2C=C(CO)[C@H]3C[C@@H]2C3(C)C)c(OC)c1
measurement-kind: EC50
val: 11.7 nM
//
molecule: C#CCCC(=O)NCC1=C[C@H](c2c(OC)cc(C(C)(C)[C@H](CCCCCN=[N+]=[N-])c3ccccc3)cc2OC)[C@@H]2C[C@H]1C2(C)C
measurement-kind: EC50
val: 33.1 nM
//
molecule: CCCCC[C@H](c1cccc(F)c1)C(C)(C)c1cc(OC)c([C@H]2C=C(CO)[C@H]3C[C@@H]2C3(C)C)c(OC)c1
measurement-kind: EC50
val: 2340 nM
//
molecule: CCCCC[C@@H](c1cccc(F)c1)C(C)(C)c1cc(OC)c([C@H]2C=C(CO)[C@H]3C[C@@H]2C3(C)C)c(OC)c1
measurement-kind: EC50
val: 209 nM
//
molecule: C#CCCC(=O)NCC1=C[C@H](c2c(OC)cc(C(C)(C)[C@@H](CCCCCN=[N+]=[N-])c3ccccc3)cc2OC)[C@@H]2C[C@H]1C2(C)C
measurement-kind: EC50
val: 40.7 nM
//
molecule: CCCCCC(CCC)C(C)(C)c1cc(OC)c([C@H]2C=C(CO)[C@H]3C[C@@H]2C3(C)C)c(OC)c1 (stereo partly drawn)
measurement-kind: EC50
val: 112 nM
//
molecule: CCN(CC)c1ccc2cc(/C=C/c3ccc(S(=O)(=O)[O-])c[n+]3CCCCCC(=O)NCC3=C[C@H](c4c(OC)cc(C(C)(C)[C@H](CCCCCN=[N+]=[N-])c5ccccc5)cc4OC)[C@@H]4C[C@H]3C4(C)C)c(=O)oc2c1
measurement-kind: EC50
val: 70.8 nM
